assay: Kp,uu,brain by brain homogenate method; assay type: in vivo; conditions: brain and plasma (unbound), rat, Table 4, read-out: Kp,uu,brain(hom) (This publication)
recorded metric: Kp uu

* C=C[C@H]1C[N@@]2CC[C@H]1C[C@@H]2[C@@H](O)c1ccnc2ccc(OC)cc12 [Quinidine] | 0.0276

###

assay: Kp,br/mu: brain to skeletal muscle partitioning, tissue distribution study in rats; conditions: rat, brain and skeletal (femoral) muscle
recorded metric: Kp

• C=C[C@H]1C[N@@]2CC[C@H]1C[C@@H]2[C@@H](O)c1ccnc2ccc(OC)cc12 [Quinidine] = 0.056
